Data credit: patent US5385842A

Collected activity at 0.1 ppm values appear next to each entry.
- System: Desulfovibrio gigas
- protocol: Sulfide production by resting cells of D. gigas
- Format: cell-based
- details: Desulfovibrio; 0.1 ppm; 3 hours at 31° C.
measured endpoint: activity at 0.1 ppm

{"columns": ["compound", "measured endpoint", "reported value"],
 "data": [
  ["N#Cc1cccc2c1C(=O)c1ccccc1C2=O [1-cyanoanthraquinone, 1-Cyanoanthraquinone]", "activity at 0.1 ppm", "118%"],
  ["O=C1c2ccccc2C(=O)c2cc(Br)ccc21 [2-bromoanthraquinone, 2-Bromoanthraquinone]", "activity at 0.1 ppm", "99%"],
  ["O=C1c2ccccc2C(=O)c2cc(C(F)(F)F)ccc21 [2-trifluoromethylanthraquinone, 2-Trifluoromethylanthraquinone]", "activity at 0.1 ppm", "99%"],
  ["O=C1c2cccc(O)c2C(=O)c2c(O)cccc21 [1,8-Dihydroxyanthraquinone]", "activity at 0.1 ppm", "101%"],
  ["O=C1c2ccccc2C(=O)c2c(Cl)cccc21 [1-Chloroanthraquinone]", "activity at 0.1 ppm", "81%"],
  ["O=C1c2ccccc2C(=O)c2c(F)cccc21 [1-fluoroanthraquinone, 1-Fluoroanthraquinone]", "activity at 0.1 ppm", "105%"]
]}

====

- Test system: Desulfovibrio desulfuricans G100A
- protocol: microbe, parasite or virus in culture
- Format: cell-based
- details: Desulfovibrio desulfuricans, G100A, read-out: % Inhib. (inhibition of sulfide production)
Where a name gives a salt, the structure may show the parent alone.
Given measured inhibition at 10 ppm, output T if it is greater than or equal to 30% and F if not.

{"columns": ["molecule", "class name"],
 "data": [
  ["Cc1ccc(S(=O)(=O)Nc2cc(S(=O)(=O)O)c(N)c3c2C(=O)c2ccccc2C3=O)cc1", "F"],
  ["O=C1c2ccccc2C(=O)c2cc(S(=O)(=O)O)ccc21 [sodium salt monohydrate]", "F"],
  ["CN(C)Cc1ccc(Nc2ccc(N)c3c2C(=O)c2ccccc2C3=O)cc1 [Basic Blue 47]", "T"],
  ["Nc1cccc2c1C(=O)c1cccc(Cl)c1C2=O [5-Chloro-1-aminoanthraquinone]", "T"],
  ["CCCCc1ccc(Nc2ccc(Nc3ccc(CCCC)cc3S(=O)(=O)O)c3c2C(=O)c2ccccc2C3=O)c(S(=O)(=O)O)c1 [Acid green 27]", "F"],
  ["Nc1c(S(=O)(=O)O)cc(Nc2ccccc2)c2c1C(=O)c1ccccc1C2=O [Acid blue 25]", "F"],
  ["Cc1ccc(Nc2ccc(Nc3ccc(C)cc3S(=O)(=O)O)c3c2C(=O)c2c(O)ccc(O)c2C3=O)c(S(=O)(=O)O)c1 [Acid green 41]", "F"],
  ["O=C1c2ccccc2C(=O)c2c(Nc3ccc(S(=O)(=O)O)cc3)c(Nc3ccc(S(=O)(=O)O)cc3)cc(O)c21 [Alizarin blue black B]", "F"],
  ["CN(C)CCOc1ccc2c(c1)C(=O)c1ccc(OCCN(C)C)cc1C2=O [Tilorone analog R11,043DA]", "T"],
  ["O=C1c2ccccc2C(=O)c2c1cc(S(=O)(=O)O)c(O)c2O [Alizarin red S monohydrate]", "F"],
  ["Oc1ccc2c(O)c3ccccc3cc2c1O [Anthrarobin, 1,2,10-Anthracenetriol]", "T"],
  ["O=C1c2ccc(O)cc2C(=O)c2ccc(O)cc21 [2,6-Dihydroxyanthraquinone]", "F"],
  ["Nc1c(S(=O)(=O)O)cc(Nc2cccc(S(=O)(=O)CCOS(=O)(=O)O)c2)c2c1C(=O)c1ccccc1C2=O [Remazol Brilliant blue R, disodium salt]", "F"],
  ["O=C(O)c1cc2c(cc1Cl)C(=O)c1ccccc1C2=O [2-Chloroanthraquinone-3-carboxylic acid]", "T"]
]}
